# key: entry, value: Ki
target: recombinant mFTase (affinity purified rat FPTase) (Rattus norvegicus, UniProt Q02293+Q04631); test: FTase scintillation proximity assay; conditions: varying concentrations of tritiated FPP; read-out: K1 FTase
The reply should contain only the number, in nM.

Below: 2 compounds and their reported Ki.
structure_as_smiles=CC(C)=CCC/C(C)=C/CC/C(=C/COP(=O)(O)OP(=O)(O)O)C(C)(C)C unit_annotation=nM result_number=8
structure_as_smiles=C=C/C(=C\COP(=O)(O)OP(=O)(O)O)CC/C=C(\C)CCC=C(C)C unit_annotation=nM result_number=96

Ki recorded for this compound, C=CC/C(=C\COP(=O)(O)OP(=O)(O)O)CC/C=C(\C)CCC=C(C)C , is 31

These measurements were taken from patent US6586461B1.
